Numbers sourced from patent US8816090B2.

Please go through the items and note down their EC50.
# SYSTEM UNDER TEST: UniProt:Q13639
# Sequence (Q13639 1-360 isoform Q13639-3): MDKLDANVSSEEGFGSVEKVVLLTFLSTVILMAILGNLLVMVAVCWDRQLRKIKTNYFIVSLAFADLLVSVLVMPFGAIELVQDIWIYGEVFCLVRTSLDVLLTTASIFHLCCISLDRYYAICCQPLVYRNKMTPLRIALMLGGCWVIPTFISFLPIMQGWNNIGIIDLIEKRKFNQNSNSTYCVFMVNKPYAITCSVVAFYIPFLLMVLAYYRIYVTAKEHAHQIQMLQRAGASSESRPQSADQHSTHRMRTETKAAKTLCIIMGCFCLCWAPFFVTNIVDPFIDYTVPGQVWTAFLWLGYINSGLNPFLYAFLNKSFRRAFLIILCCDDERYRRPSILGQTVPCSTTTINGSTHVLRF
# METHOD SUMMARY: Agonist-induced cAMP elevation in human 5-HT4(d) transfected HEK293 cells
# CONDITIONS USED: cAMP elevation (HTRF), human 5-HT4(d) transfected HEK293 cells
Where a name gives a salt, the structure may show the parent alone.
Numbers only, in nM.

Sample records with EC50:
O=C(O)C1(CN2CCC(COc3noc4cccc(O[C@H]5CC[C@H](O)CC5)c34)CC2)CCOCC1 ... 18
CO[C@@H]1CCC[C@@H]1Oc1cccc2onc(OCC3CCN(CC4(O)CCOCC4)CC3)c12 (relative stereo) [Example 37, oxalate salt] ... 8.8
CC(C)COc1cccc2onc(OCC3CCN(CC(C)(C)C(=O)O)CC3)c12 ... 1.4
O=C(O)C1(CN2CCC(COc3noc4cccc(OC5CCOCC5)c34)CC2)CCCCC1 ... 19
CC(C)COc1cccc2onc(OCC3CCN(CC4(C(=O)O)CCCC4)CC3)c12 ... 2.9
CC(C)COc1cccc2onc(OCC3CCN(C[C@H]4CC[C@H](C(=O)O)CC4)CC3)c12 ... 2
O=C(O)C1(CN2CCC(COc3noc4cccc(OCC5(CO)CCCC5)c34)CC2)CCC1 ... 30
O=C(O)[C@H]1CC[C@H](CN2CCC(COc3noc4cccc(O[C@H]5CC[C@@H](O)CC5)c34)CC2)CC1 ... 2.4
O=C(O)[C@H]1CC[C@H](CN2CCC(COc3noc4cccc(O[C@H]5CC[C@@H](CO)CC5)c34)CC2)CC1 ... 5.3
OC1(CN2CCC(COc3noc4cccc(O[C@H]5CC[C@H](O)CC5)c34)CC2)CCOCC1 ... 3

Provide reported EC50 for each item, in the same order as listed.
1. O=C(O)C1(CN2CCC(COc3noc4cccc(OCC5CCC5)c34)CC2)CCOCC1
2. O[C@H]1CCC[C@@H]1Oc1cccc2onc(OCC3CCN(CC4(O)CCOCC4)CC3)c12 (relative stereo)
3. CC(C)COc1cccc2onc(OCCC3CCN(CC4(C(=O)O)CCOCC4)CC3)c12

[2, 1.6, 39]

// for each compound below, give its EC50
1. CC(C)(CN1CCC(COc2noc3cccc(OCC4CCC4)c23)CC1)C(=O)O
2. O=C(O)C1(CN2CCC(COc3noc4cccc(O[C@H]5CCC[C@@H]5O)c34)CC2)CCC1 (relative stereo)

1. 0.16
2. 2.7

Parameter requested: EC50. Apply to each item below.
1. CC(C)COc1cccc2onc(OCC3CCN(CC4(C(=O)O)CCC4)CC3)c12
2. O=C(O)C1(CN2CCC(COc3noc4cccc(OC5CCCC5)c34)CC2)CCOCC1
3. OC1(COc2cccc3onc(OCC4CCN(CC5(O)CCOCC5)CC4)c23)CCCC1
4. O=C(O)C1(CN2CCC(COc3noc4cccc(OCC5CCC5)c34)CC2)CCCC1
5. O=C(O)[C@H]1CC[C@H](CN2CCC(COc3noc4cccc(OC5CCOCC5)c34)CC2)CC1
6. O=C(O)C1(CN2CCC(COc3noc4cccc(OCC5(CO)CCCC5)c34)CC2)CCOCC1
7. CC(C)COc1cccc2onc(OCC3CCN(CC4(O)CCOCC4)CC3)c12 [Example 8, p-toluenesulfonate salt]
8. O=C(O)C1(CCN2CCC(COc3noc4cccc(OCC(F)(F)F)c34)CC2)CCOCC1

1: 2.3; 2: 1.4; 3: 27; 4: 3.6; 5: 11; 6: 27; 7: 2.6; 8: 2.7
